Reported melting point by item:

- Compound: "Cc1cnc2c(c1-c1ccccc1)C(=O)N(Cc1ccccc1)CCN(C)C2=O [Reference Example 106]"
  melting point: "183 to 184 °C"
- Compound: "C[C@H]1COc2nccc(-c3ccccc3)c2C(=O)N(Cc2cc(C(F)(F)F)cc(C(F)(F)F)c2)C1 [Reference Example 126]"
  melting point: "142 to 143 °C"
- Compound: "NCc1cc(-c2ccccc2)c2c(n1)OCCN(Cc1cc(C(F)(F)F)cc(C(F)(F)F)c1)C2=O [Reference Example 97]"
  melting point: "188 to 191 °C"
- Compound: "Cc1cc(-c2ccccc2)c2c([n+]1[O-])OCCN(Cc1cc(C(F)(F)F)cc(C(F)(F)F)c1)C2=O [Reference Example 89]"
  melting point: "181 to 183 °C"

meta.source: patent US20020132817A1
